FYI, the data here is from patent US20090325959A1.

Experiment Description: Compound plasma concentrations in unsensitized mice at 15 min post administration
Type: in vivo
Condition Set: mouse, 15 μmol/kg; mean compound plasma concentration in mice at 15 minutes post oral administration; read-out: Mouse Oral PK
If the reported concentration at 15 min equals or exceeds 700 nM, assign satisfied. If not, assign not satisfied.

[[record]]
compound = "Cc1cccc(CN2CCC[C@H](Nc3ccc4[nH]ncc4c3)C2)c1 [Compound 1.171]"
group_label = "not satisfied"


Alright, here's another compound for you.
Assess whether reported concentration at 15 min for c1cc2c(cc1CN1CCC[C@H](Nc3ccc4[nH]ncc4c3)C1)OCCO2 [Compound 1.166] sits at 700 nM or higher. not satisfied

====

Below is a list of entries, each paired with its recorded ERK2 Percent inhibition, 1 μM value.
Target: ERK2 (Homo sapiens)
Construct: purchased Upstate, Millipore Bioscience Division (KinaseProfiler service)
Sequence (P28482 whole entry): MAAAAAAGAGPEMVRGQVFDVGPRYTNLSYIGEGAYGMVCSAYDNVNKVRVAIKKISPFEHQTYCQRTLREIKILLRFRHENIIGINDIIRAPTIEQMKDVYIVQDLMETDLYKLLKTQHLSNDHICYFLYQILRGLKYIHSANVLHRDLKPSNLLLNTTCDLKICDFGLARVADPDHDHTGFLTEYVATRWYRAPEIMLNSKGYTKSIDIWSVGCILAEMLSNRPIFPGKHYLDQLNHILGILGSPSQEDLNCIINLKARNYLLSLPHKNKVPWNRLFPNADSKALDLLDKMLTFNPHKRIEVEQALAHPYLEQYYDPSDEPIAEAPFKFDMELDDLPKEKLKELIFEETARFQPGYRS
Experiment Description: Kinase panel screen (KinaseProfiler), ERK2
Assay type: biochemical
I'd appreciate it if you included the unit after the number.

The examples below pair each entry with its known result.
[[record]]
smiles_str = "OCCn1ccc2cc(CN3CC[C@@H](Nc4cccc5cnccc45)C3)ccc21"
experimental_readout = "ERK2 Percent inhibition, 1 μM"
readout_value = "50%"

[[record]]
smiles_str = "NC(=O)Cn1ccc2cc(CN3CCC[C@@H](Nc4ccc5[nH]ncc5c4)C3)ccc21"
experimental_readout = "ERK2 Percent inhibition, 1 μM"
readout_value = "89%"

[[record]]
smiles_str = "NC(=O)Cn1ccc2cc(CN3CC[C@@H](Nc4cccc5cnccc45)C3)ccc21"
experimental_readout = "ERK2 Percent inhibition, 1 μM"
readout_value = "56%"


Look up ERK2 Percent inhibition, 1 μM for this compound: Cc1ccc(CN2CCC[C@@H](Nc3ccc4[nH]ncc4c3)C2)cc1OCCO 104%

====

Below is a list of entries, each paired with its recorded Ki value.
Target: ROCK1 (Homo sapiens, UniProt Q13464)
Construct: purchased Upstate/Chemicon 14-601
Sequence (Q13464 17-535 limits assumed): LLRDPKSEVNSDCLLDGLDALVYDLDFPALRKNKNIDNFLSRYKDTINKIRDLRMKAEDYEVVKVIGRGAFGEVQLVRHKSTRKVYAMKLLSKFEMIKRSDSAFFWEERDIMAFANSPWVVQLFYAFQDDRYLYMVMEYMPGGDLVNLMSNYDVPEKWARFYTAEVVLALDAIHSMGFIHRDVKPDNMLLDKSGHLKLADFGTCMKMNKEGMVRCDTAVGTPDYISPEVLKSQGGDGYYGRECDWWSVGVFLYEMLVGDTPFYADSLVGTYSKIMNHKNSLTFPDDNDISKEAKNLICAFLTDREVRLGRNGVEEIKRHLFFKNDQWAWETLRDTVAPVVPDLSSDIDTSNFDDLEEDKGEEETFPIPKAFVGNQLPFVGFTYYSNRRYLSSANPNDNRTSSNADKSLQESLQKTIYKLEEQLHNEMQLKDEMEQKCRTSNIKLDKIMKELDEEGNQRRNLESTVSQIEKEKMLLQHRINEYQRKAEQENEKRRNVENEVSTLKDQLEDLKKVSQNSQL
Experiment Description: Rho kinase inhibition assay (IMAP fluorescence polarization), ROCK1
Format: biochemical
Condition Set: Avg, 10 μM ATP
Give just the number in µM; leave the unit off.

The examples below pair each entry with its known result.
[[record]]
smiles_str = "COc1ccc(CN2CC[C@@H](Nc3cccc4cnccc34)C2)cc1"
readout_value = 0.0264

[[record]]
smiles_str = "Fc1ccc(CN2CCC[C@H](Nc3ccc4[nH]ncc4c3)C2)cc1"
readout_value = 0.0424

[[record]]
smiles_str = "CS(=O)(=O)c1ccc(CN2CCC[C@H](Nc3ccc4[nH]ncc4c3)C2)cc1"
readout_value = 0.568


Now for a further compound.
Field: Ki (ROCK1 (Homo sapiens, UniProt Q13464)). Entry: CS(=O)(=O)Nc1cccc(CN2CC[C@@H](Nc3cccc4cnccc34)C2)c1 0.0289

====

Target: p70S6K human enzyme (Homo sapiens, UniProt P23443, T412E)
Construct: purchased Upstate Chemicon 14-486
Sequence (P23443 1-421 T412E limits assumed): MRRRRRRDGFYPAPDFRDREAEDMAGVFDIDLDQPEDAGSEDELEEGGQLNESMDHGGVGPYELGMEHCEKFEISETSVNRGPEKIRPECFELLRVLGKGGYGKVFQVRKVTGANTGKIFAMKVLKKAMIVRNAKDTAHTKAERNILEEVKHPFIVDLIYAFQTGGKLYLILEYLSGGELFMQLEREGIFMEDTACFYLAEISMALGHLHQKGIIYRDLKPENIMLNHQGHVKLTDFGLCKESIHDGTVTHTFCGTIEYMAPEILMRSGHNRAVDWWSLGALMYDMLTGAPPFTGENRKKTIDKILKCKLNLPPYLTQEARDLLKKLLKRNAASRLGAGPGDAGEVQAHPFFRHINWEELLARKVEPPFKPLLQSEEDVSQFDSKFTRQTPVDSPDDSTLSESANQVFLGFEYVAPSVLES
Experiment Description: p70S6K inhibition assay (IMAP FP);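 also: kinase reaction run at room temperature, phosphorylated substrate captured on IMAP beads and read as fluorescence polarization in mP, IC50 then converted to Ki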
Format: biochemical
Condition Set: average Ki; read-out: p70S6K Ki
Experimental Readout: log10 Ki (log10 of the value in nM)
log10 Ki, nM

[[record]]
smiles_str = "Cc1cccc(CN2CCC[C@H](Nc3ccc4[nH]ncc4c3)C2)c1C"
readout_value = 3.51

[[record]]
smiles_str = "CCCCS(=O)(=O)Nc1cc(CN2CCC[C@H](Nc3ccc4[nH]ncc4c3)C2)ccc1C"
readout_value = 3.44


Field: log10 Ki (p70S6K human enzyme (Homo sapiens, UniProt P23443, T412E)). Entry: NC(=O)Cn1ccc2cc(CN3CC[C@@H](Nc4cccc5cnccc45)C3)ccc21 2.32

Field: log10 Ki (p70S6K human enzyme (Homo sapiens, UniProt P23443, T412E)). Entry: C#Cc1cccc(CN2CCC[C@H](Nc3ccc4[nH]ncc4c3)C2)c1 3.38

Field: log10 Ki (p70S6K human enzyme (Homo sapiens, UniProt P23443, T412E)). Entry: Fc1ccc(CN2CCC[C@H](Nc3ccc4[nH]ncc4c3)C2)cc1 3.29

Field: log10 Ki (p70S6K human enzyme (Homo sapiens, UniProt P23443, T412E)). Entry: c1cc2cc(CN3CCC[C@H](Nc4ccc5[nH]ncc5c4)C3)ccc2s1 2.93

Field: log10 Ki (p70S6K human enzyme (Homo sapiens, UniProt P23443, T412E)). Entry: C#Cc1ccc(CN2CC[C@@H](Nc3cccc4cnccc34)C2)cc1 2.51

Field: log10 Ki (p70S6K human enzyme (Homo sapiens, UniProt P23443, T412E)). Entry: C#Cc1ccc(CN2CCC[C@@H](Nc3ccc4[nH]ncc4c3)C2)cc1 2.62

====

Below is a list of entries, each paired with its recorded Percent of PDGF Induced Proliferation at 10 μM Avg value.
Tested on: A-10 rat thoracic aorta cells
Experiment Description: PDGF-stimulated smooth muscle cell proliferation assay (BrdU incorporation);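 also: cells kept in serum-free medium, BrdU allowed to incorporate for 24 h, then incorporated label detected fluorometrically with an anti-BrdU antibody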
Type: cell-based
Condition Set: A-10 cells, 10 μM test compound, 10 ng/mL PDGF, BrdU incorporation; percent of total challenge-stimulated proliferation
Give just the number in %; leave the unit off.

The examples below pair each entry with its known result.
[[record]]
compound = "CS(=O)(=O)Nc1cccc(CN2CCCC(Nc3ccc4[nH]ncc4c3)C2)c1 (stereo in doubt)"
readout_value = 69.3

[[record]]
compound = "Clc1ccc(CN2CC[C@@H](Nc3cccc4cnccc34)C2)cc1"
readout_value = 64.4

[[record]]
compound = "CCS(=O)(=O)Nc1cccc(CN2CCC[C@H](Nc3ccc4[nH]ncc4c3)C2)c1"
readout_value = 61.6

[[record]]
compound = "c1ccc(CN2CC[C@@H](Nc3cccc4cnccc34)C2)cc1"
readout_value = 32.1

[[record]]
compound = "CCCS(=O)(=O)Nc1cc(CN2CCC[C@H](Nc3ccc4[nH]ncc4c3)C2)ccc1C"
readout_value = 48.6

[[record]]
compound = "CSc1ccc(CN2CCC[C@@H](Nc3ccc4[nH]ncc4c3)C2)cc1"
readout_value = 46.9

[[record]]
compound = "CC(C)c1ccc(CN2CCC[C@H](Nc3ccc4[nH]ncc4c3)C2)cc1"
readout_value = 64.8

[[record]]
compound = "OCCn1ccc2ccc(CN3CCC[C@@H](Nc4ccc5[nH]ncc5c4)C3)cc21"
readout_value = 43.7


Field: Percent of PDGF Induced Proliferation at 10 μM Avg (A-10 rat thoracic aorta cells). Entry: Cc1ccc(CN2CCC[C@@H](Nc3ccc4[nH]ncc4c3)C2)cc1O 35.8

Field: Percent of PDGF Induced Proliferation at 10 μM Avg (A-10 rat thoracic aorta cells). Entry: CSc1ccc(CN2CC[C@@H](Nc3cccc4cnccc34)C2)cc1 52.0

Field: Percent of PDGF Induced Proliferation at 10 μM Avg (A-10 rat thoracic aorta cells). Entry: FC(F)(F)c1ccc(CN2CCC[C@H](Nc3ccc4[nH]ncc4c3)C2)cc1 52.7

Field: Percent of PDGF Induced Proliferation at 10 μM Avg (A-10 rat thoracic aorta cells). Entry: c1cc2cc(CN3CCC[C@@H](Nc4ccc5[nH]ncc5c4)C3)ccc2s1 27.0

Field: Percent of PDGF Induced Proliferation at 10 μM Avg (A-10 rat thoracic aorta cells). Entry: CC(C)c1ccc(CN2CCC[C@@H](Nc3ccc4[nH]ncc4c3)C2)cc1 42.8

Field: Percent of PDGF Induced Proliferation at 10 μM Avg (A-10 rat thoracic aorta cells). Entry: CCS(=O)(=O)Nc1cc(CN2CCC[C@H](Nc3ccc4[nH]ncc4c3)C2)ccc1C 47.9

Field: Percent of PDGF Induced Proliferation at 10 μM Avg (A-10 rat thoracic aorta cells). Entry: NC(=O)Cn1ccc2cc(CN3CCC[C@@H](Nc4ccc5[nH]ncc5c4)C3)ccc21 42.5

Field: Percent of PDGF Induced Proliferation at 10 μM Avg (A-10 rat thoracic aorta cells). Entry: Clc1ccc(CN2CCC[C@@H](Nc3ccc4[nH]ncc4c3)C2)cc1 30.3

Field: Percent of PDGF Induced Proliferation at 10 μM Avg (A-10 rat thoracic aorta cells). Entry: NC(=O)Cn1ccc2cc(CN3CCC[C@H](Nc4ccc5[nH]ncc5c4)C3)ccc21 57.9

====

Target: ROCK1 (Homo sapiens, UniProt Q13464)
Construct: purchased Upstate/Chemicon 14-601
Experiment Description: Rho kinase inhibition assay (IMAP fluorescence polarization), ROCK1;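 also: kinase reaction run 60 min at room temperature, then phosphorylated substrate captured on IMAP beads for 30 min, with fluorescence polarization read in mP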
Type: biochemical
Condition Set: Avg, 10 μM ATP
pKi: −log10 of the molar value.
If the reported pKi equals or exceeds 7, assign condition met. If not, assign condition not met.

Examples from the recorded data:
[[record]]
compound = "OCCOc1ccc(CN2CCC[C@H](Nc3ccc4[nH]ncc4c3)C2)cc1"
group_label = "condition not met"

[[record]]
compound = "CS(=O)(=O)Nc1cccc(CN2CCCC(Nc3ccc4[nH]ncc4c3)C2)c1 (centres unmarked) [Compound 1.051]"
group_label = "condition met"

[[record]]
compound = "c1cc(N[C@@H]2CCN(Cc3ccc4cc[nH]c4c3)C2)c2ccncc2c1"
group_label = "condition met"

[[record]]
compound = "Cc1ccc(CN2CCC[C@@H](Nc3ccc4[nH]ncc4c3)C2)cc1"
group_label = "condition met"

[[record]]
compound = "NCc1cccc(CN2CCC[C@@H](Nc3ccc4[nH]ncc4c3)C2)c1"
group_label = "condition not met"


Assess whether reported pKi for OCCn1ccc2cc(CN3CC[C@@H](Nc4cccc5cnccc45)C3)ccc21 sits at 7 or higher. condition met

Assess whether reported pKi for Cc1ccc(CN2CC[C@@H](Nc3cccc4c[n+]([O-])ccc34)C2)cc1OCCO sits at 7 or higher. condition not met

Assess whether reported pKi for OCCOc1cccc(CN2CCCC(Nc3ccc4[nH]ncc4c3)C2)c1 (centres unmarked) sits at 7 or higher. condition not met
